# System: rainbow trout (Oncorhynchus mykiss)
# assay_procedure: Contribution of tissues to fish body burden
# Format: in vivo
# test_settings: fraction, Mean
# Text: To calculate the quantity of the test chemical in the different tissues, the amount of each tissue in the fish was estimated and multiplied by the concentration in that tissue. The test chemical quantities in the different tissues were then summed to give the body burden in each fish. […] The remaining tissue (difference between the weight of the whole fish and the weight of liver, gills, skin, and blood) was assumed to have the concentration measured in the muscle. […]
This section presents molecules with their documented Contribution of Liver to the fish's body burden values.
metric: Contribution of Liver to the fish's body burden

{"smiles_repr": "CCCCCCCCCCCCCN", "assay_value": 0.21}
{"smiles_repr": "CCCCCCCCCN", "assay_value": 0.14}
{"smiles_repr": "CCCCCCCCCN(C)C", "assay_value": 0.13}
{"smiles_repr": "CCCCCCCCCCCCN", "assay_value": 0.19}
{"smiles_repr": "CCCCCCCCCCCCCCCCN", "assay_value": 0.12}
{"smiles_repr": "CCCCCCCCCCCCCN(C)C", "assay_value": 0.10}
